Test system: Enterovirus A71
Assay: Inhibitory activity against Human Enterovirus 71 (4643) C using plaque reduction assay
Format: functional, organism-based
Details: Enterovirus A
pIC50: −log10 of the molar value.
Measured pIC50 accompanies every entry in the list below.
measured metric: pIC50

INSERT INTO results (smiles_record, result_number) VALUES
  ('C[C@@H](CCOc1ccc(-c2ccc(Cl)cc2)cc1)CCN1CCN(c2ccncc2)C1=O', 7.48),
  ('C[C@H](CCOc1ccc(-c2ccc(Cl)cc2)cc1)CCN1CCN(c2ccncc2)C1=O', 8.52);

====

System: Enterovirus A71
Assay: Inhibitory activity against Human Enterovirus 71 (2086) C using plaque reduction assay
Format: functional, organism-based
Conditions: Enterovirus A
measured metric: IC50 (nM)

INSERT INTO assay_data (smiles_record, experimental_target, reading_unit, result_number) VALUES
  ('C[C@@H](CCOc1ccc(-c2ccc(Cl)cc2)cc1)CCN1CCN(c2ccncc2)C1=O', 'Enterovirus A71', 'nM', 49),
  ('C[C@H](CCOc1ccc(-c2ccc(Cl)cc2)cc1)CCN1CCN(c2ccncc2)C1=O', 'Enterovirus A71', 'nM', 8);
